cell viability values, listed per item
- System: OCI-AML2;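 also: after 48 h exposure read by CellTiter-Glo luminescence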
- METHOD NOTES: cell viability relative to vehicle control; higher = less cytotoxic
- ASSAY SETUP: 10 µM; SRSF2 genotype: wt/wt
The response must be a number in % with no trailing unit.

CCC(=O)O[C@H]1CC[C@H]2[C@@H]3CC[C@H]4CC(=O)[C@H](C)C[C@]4(C)[C@H]3CC[C@]12C [Drostanolone Propionate]; 57.3
O=c1ccc2cc(O[C@@H]3O[C@H](CO)[C@@H](O)[C@H](O)[C@H]3O)c(O)cc2o1 [Aesculin (Esculin)]; 93.3
O=C(C[S+]([O-])C(c1ccccc1)c1ccccc1)NO (centres undefined); 110

Now examine the next entry.
// cell viability lookup, key: COCC1(CO)C(=O)C2CCN1CC2 (centres undefined)
15.9

Data provenance: the supplement of paper PMC10981050
